molecular target: human Nav1.7 (Homo sapiens); construct: expressed in transfected cells; host or cells: HEK293; experiment: Nav 1.7 IWB In Vitro Assay (IonWorks Barracuda); format: cell-based; conditions: HEK293 cells stably transfected with human Nav 1.7; IonWorks Barracuda population patch-clamp; cells clamped to −20 mV for 4 minutes with compound; 26th pulse; read-out: hNav1.7 IWB IC50
OBSERVABLE: IC50 (nM)

Look over these answered cases.
* COc1cc(-c2ccc(Cl)c(C#N)c2)c(F)cc1-n1c2c(ccc1=O)CN(S(=O)(=O)Nc1ccon1)CC2 (racemic) | 18
* COc1cc(-c2cnc(OC)c(C(F)(F)F)c2)c(F)cc1-n1c2c(ccc1=O)CN(S(=O)(=O)Nc1cccnn1)CC2 | 13.9
* COc1cc(-c2cc(F)cc(Cl)c2)c(F)cc1-n1c2c(ccc1=O)CN(S(=O)(=O)Nc1cccnn1)CC2 (racemic) [Example 38-(Rac)] | 10.2
* COc1cc(OC)cc(-c2cc(OC)c(-n3c4c(ccc3=O)CN(S(=O)(=O)Nc3ccon3)CC4)cc2F)c1 | 36.5
* COc1cc(-c2cccc(C(F)(F)F)c2)c(Cl)cc1-n1c2c(ccc1=O)CN(S(=O)(=O)Nc1cccnn1)CC2 (single isomer, unassigned) [Example 91-M] | 154
* COc1cc(C#CC2CCCC2)c(F)cc1-n1c2c(ccc1=O)CN(S(=O)(=O)Nc1ccon1)CC2 (racemic) [Example 34-(Rac)] | 48.5
* COc1cc(-c2ccc(C)c(F)c2)c(F)cc1-n1c2c(ccc1=O)CN(S(=O)(=O)Nc1ccon1)CC2 (racemic) [Example 21-(Rac)] | 17.8
* COc1cc(-c2cc(F)cc(Cl)c2)c(F)cc1-n1c2c(ccc1=O)CN(S(=O)(=O)Nc1ncccn1)CC2 (single isomer, unassigned) [Example 31-P] | 36.9

A. COc1cc(-c2ccc(Cl)c(C)c2)c(F)cc1-n1c2c(ccc1=O)CN(S(=O)(=O)Nc1cccnn1)CC2 (single isomer, unassigned) [Example 33-P]
B. COc1cc(-c2cc(F)cc(Cl)c2)c(F)cc1-n1c2c(ccc1=O)CN(S(=O)(=O)Nc1ccon1)CC2 (single isomer, unassigned) [Example 18-M]
C. COc1cc(-c2cc(F)cc(F)c2)c(F)cc1-n1c2c(ccc1=O)CN(S(=O)(=O)Nc1ncc(F)cn1)CC2 (single isomer, unassigned) [Example 10-P]
D. COc1cc(-c2cc(F)cc(Cl)c2)c(F)cc1-n1c2c(ccc1=O)CN(S(=O)(=O)Nc1cccc(F)n1)CC2 (racemic) [Example 13-(Rac)]
E. COc1cc(-c2cc(OC)c(-n3c4c(ccc3=O)CN(S(=O)(=O)Nc3ccon3)CC4)cc2F)ccc1Cl (racemic) [Example 15-(Rac)]
## Input Hey, quick one: sort these by IC50, low to high? Submit the labels in the order that the ranking request calls for.
## Output E, A, D, C, B

###

target: human Nav1.7 (Homo sapiens, UniProt Q15858); construct: expressed in transfected cells; host or cells: HEK293; assay: Nav 1.7 In Vitro PatchXpress (PX) Assay; assay type: cell-based; details: HEK 293 cells stably transfected with human Nav1.7; PatchXpress whole cell voltage clamp; partially inactivated state (holding potential yielding 20 to 50% inactivation); read-out: hNav1.7 PX IC50
Sequence (Q15858 whole entry): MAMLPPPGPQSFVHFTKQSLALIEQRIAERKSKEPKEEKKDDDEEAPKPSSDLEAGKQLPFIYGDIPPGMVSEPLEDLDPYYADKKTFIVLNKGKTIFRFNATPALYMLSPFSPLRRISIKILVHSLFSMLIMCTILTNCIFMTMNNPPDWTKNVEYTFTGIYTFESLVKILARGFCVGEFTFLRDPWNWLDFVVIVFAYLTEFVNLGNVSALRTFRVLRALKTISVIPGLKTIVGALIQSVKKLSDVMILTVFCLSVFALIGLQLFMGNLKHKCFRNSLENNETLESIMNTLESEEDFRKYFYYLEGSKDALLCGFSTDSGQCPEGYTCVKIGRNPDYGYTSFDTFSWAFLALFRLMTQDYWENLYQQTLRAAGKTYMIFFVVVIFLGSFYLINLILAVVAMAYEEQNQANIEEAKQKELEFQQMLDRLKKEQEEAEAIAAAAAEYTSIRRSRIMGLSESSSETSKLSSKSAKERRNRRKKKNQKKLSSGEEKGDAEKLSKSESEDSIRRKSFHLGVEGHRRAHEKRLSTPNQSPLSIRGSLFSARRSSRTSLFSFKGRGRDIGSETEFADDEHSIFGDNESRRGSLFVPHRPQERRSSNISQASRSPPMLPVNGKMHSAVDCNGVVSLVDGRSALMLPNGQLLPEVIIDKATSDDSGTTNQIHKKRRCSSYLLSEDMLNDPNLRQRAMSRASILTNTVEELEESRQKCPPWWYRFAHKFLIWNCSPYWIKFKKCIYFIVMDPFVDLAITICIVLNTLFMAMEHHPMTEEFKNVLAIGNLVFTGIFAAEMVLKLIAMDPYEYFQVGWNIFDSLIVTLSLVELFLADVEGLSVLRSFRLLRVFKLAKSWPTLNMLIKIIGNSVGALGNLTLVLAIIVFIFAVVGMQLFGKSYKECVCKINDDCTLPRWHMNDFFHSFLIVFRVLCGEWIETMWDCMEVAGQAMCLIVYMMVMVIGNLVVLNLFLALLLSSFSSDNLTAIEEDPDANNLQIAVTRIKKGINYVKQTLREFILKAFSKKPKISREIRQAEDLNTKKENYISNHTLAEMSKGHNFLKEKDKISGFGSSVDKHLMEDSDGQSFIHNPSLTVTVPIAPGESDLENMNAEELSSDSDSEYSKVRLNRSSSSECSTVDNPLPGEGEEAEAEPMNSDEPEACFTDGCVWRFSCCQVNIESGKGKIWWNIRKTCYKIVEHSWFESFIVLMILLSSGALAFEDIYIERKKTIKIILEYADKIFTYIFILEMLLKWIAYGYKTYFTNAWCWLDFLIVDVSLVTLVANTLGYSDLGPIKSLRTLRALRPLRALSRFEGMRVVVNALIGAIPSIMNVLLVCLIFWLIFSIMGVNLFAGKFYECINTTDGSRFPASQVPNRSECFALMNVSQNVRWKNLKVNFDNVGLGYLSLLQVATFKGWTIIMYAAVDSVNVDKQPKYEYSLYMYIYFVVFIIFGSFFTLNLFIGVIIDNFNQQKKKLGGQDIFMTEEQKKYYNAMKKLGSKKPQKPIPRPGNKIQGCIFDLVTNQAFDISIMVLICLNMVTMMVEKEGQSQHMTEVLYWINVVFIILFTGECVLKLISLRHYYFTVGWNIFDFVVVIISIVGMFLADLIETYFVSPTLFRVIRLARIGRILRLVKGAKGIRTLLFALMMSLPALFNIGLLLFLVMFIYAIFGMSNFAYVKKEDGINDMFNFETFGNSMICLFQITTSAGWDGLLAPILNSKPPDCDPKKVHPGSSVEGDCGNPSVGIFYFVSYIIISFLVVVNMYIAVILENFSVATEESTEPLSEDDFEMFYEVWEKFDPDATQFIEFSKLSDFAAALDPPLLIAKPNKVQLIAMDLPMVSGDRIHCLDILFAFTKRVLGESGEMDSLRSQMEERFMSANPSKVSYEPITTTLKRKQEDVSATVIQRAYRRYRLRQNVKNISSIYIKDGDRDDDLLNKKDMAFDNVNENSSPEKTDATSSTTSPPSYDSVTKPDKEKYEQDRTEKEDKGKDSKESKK
OBSERVABLE: IC50 (nM)

Look over these answered cases.
• COc1cc(-c2ccc(F)c(C)c2)c(C)cc1-n1c2c(ccc1=O)CN(S(=O)(=O)Nc1cccnn1)CC2 (single isomer, unassigned) [Example 93-P] = 116
• COc1cc(-c2ccc(Cl)c(C)c2)c(F)cc1-n1c2c(ccc1=O)CN(S(=O)(=O)Nc1ccon1)CC2 (racemic) [Example 24-(Rac)] = 73.7
• COc1cc(-c2ccc(C(F)(F)F)cc2)c(F)cc1-n1c2c(ccc1=O)CN(S(=O)(=O)Nc1cccnn1)CC2 [Example 67] = 75.8
• COc1cc(-c2cc(F)cc(Cl)c2)c(F)cc1-n1c2c(ccc1=O)CN(S(=O)(=O)Nc1ccnc(C)n1)CC2 (racemic) [6-(Rac)] = 666
• COc1cc(-c2cccc(OCC(F)(F)F)c2)c(F)cc1-n1c2c(ccc1=O)CN(S(=O)(=O)Nc1cccnn1)CC2 [Example 68] = 74.2
• COc1cc(-c2cc(Cl)ccc2C)c(F)cc1-n1c2c(ccc1=O)CN(S(=O)(=O)Nc1ccon1)CC2 (single isomer, unassigned) [Example 9-M] = 772

P. COc1cc(-c2cc(OC)c(-n3c4c(ccc3=O)CN(S(=O)(=O)Nc3ccon3)CC4)cc2Cl)ccc1Cl [Example 52]
Q. COc1cc(-c2cc(F)cc(Cl)c2)c(F)cc1-n1c2c(ccc1=O)CN(S(=O)(=O)Nc1ccon1)CC2 (single isomer, unassigned) [Example 18-M]
R. COc1cc(-c2ccc(Cl)c(C)c2)c(F)cc1-n1c2c(ccc1=O)CN(S(=O)(=O)Nc1ncccn1)CC2 (single isomer, unassigned) [Example 30-M]
S. COc1cc(C#CC2CCCC2)c(F)cc1-n1c2c(ccc1=O)CN(S(=O)(=O)Nc1ccon1)CC2 (racemic) [Example 34-(Rac)]
T. COc1cc(-c2ccc(F)c(F)c2)c(F)cc1-n1c2c(ccc1=O)CN(S(=O)(=O)Nc1cccnn1)CC2 (single isomer, unassigned) [Example 32-P]
## Input Hey, quick one: sort these by IC50, low to high? Submit the labels in the order that the ranking request calls for.
## Output P, T, S, Q, R

###

target: human Nav1.7 (Homo sapiens, UniProt Q15858); construct: expressed in transfected cells; host or cells: HEK293; assay: Nav 1.7 IWQ In Vitro Assay (IonWorks Quattro); type: cell-based; conditions: HEK293 cells stably transfected with human Nav 1.7; IonWorks Quattro population patch-clamp; 26th pulse to −20 mV, 5 Hz; cells unclamped 5 to 8 minutes with compound; read-out: hNav1.7 IWQ IC50
OBSERVABLE: IC50 (nM)

- COc1cc(-c2ccc(Cl)c(C)c2)c(F)cc1-n1c2c(ccc1=O)CN(S(=O)(=O)Nc1cccnn1)CC2 (racemic) [Example 33-(Rac)]: 19.6

P. COc1cc(-c2ccc(OC)c(C(F)(F)F)c2)c(F)cc1-n1c2c(ccc1=O)CN(S(=O)(=O)Nc1cccnn1)CC2
Q. COc1cc(-c2cccc(C(F)(F)F)c2)c(Cl)cc1-n1c2c(ccc1=O)CN(S(=O)(=O)Nc1cccnn1)CC2 (single isomer, unassigned)
## Input Pick one: P or Q . Which one has the lower reported IC50? State the label of the item chosen.
## Output Q
(Q: 3.4 nM, P: 15.6 nM)

###

biological target: human Nav1.7 (Homo sapiens); construct: expressed in transfected cells; host or cells: HEK293; experiment: Nav 1.7 IWQ In Vitro Assay (IonWorks Quattro); type: cell-based; conditions: HEK293 cells stably transfected with human Nav 1.7; IonWorks Quattro population patch-clamp; 26th pulse to −20 mV, 5 Hz; cells unclamped 5 to 8 minutes with compound; read-out: hNav1.7 IWQ IC50
pIC50: −log10 of the molar value.
OBSERVABLE: pIC50

Look over these answered cases.
- COc1cc(-c2cc(OC)c(-n3c4c(ccc3=O)CN(S(=O)(=O)Nc3cccnn3)CC4)cc2F)ccc1Cl (single isomer, unassigned) [Example 2-M]: 6.59
- COc1cc(-c2cc(F)cc(Cl)c2)c(F)cc1-n1c2c(ccc1=O)CN(S(=O)(=O)Nc1cc(C)ncn1)CC2 (single isomer, unassigned): 7.61
- COc1nc(-c2cc(F)cc(Cl)c2)c(F)cc1-n1c2c(ccc1=O)CN(S(=O)(=O)Nc1cccnn1)CC2 (racemic): 6.86
- COc1cc(-c2ccc(F)c(F)c2)c(F)cc1-n1c2c(ccc1=O)CN(S(=O)(=O)Nc1ccon1)CC2 (single isomer, unassigned) [Example 20-P]: 8.44
- COc1cc(-c2cccc(OC(F)(F)F)c2)c(F)cc1-n1c2c(ccc1=O)CN(S(=O)(=O)Nc1cccnn1)CC2: 8.64

A. COc1cc(OC)cc(-c2cc(OC)c(-n3c4c(ccc3=O)CN(S(=O)(=O)Nc3ccon3)CC4)cc2F)c1
B. COc1cc(-c2cc(Cl)cc(OC(F)(F)F)c2)c(F)cc1-n1c2c(ccc1=O)CN(S(=O)(=O)Nc1cccnn1)CC2
## Input Response body: label of entry with the larger pIC50; valid values A , B . State the label of the item chosen.
## Output B

A. COc1cc(-c2ccc(F)c(OC(F)(F)F)c2)c(F)cc1-n1c2c(ccc1=O)CN(S(=O)(=O)Nc1cccnn1)CC2
B. COc1cc(-c2ccc(F)c(F)c2)c(F)cc1-n1c2c(ccc1=O)CN(S(=O)(=O)Nc1ccon1)CC2 (racemic) [Example 20-(Rac)]
## Input Pick one: A or B . Which one has the lower reported pIC50? State the label of the item chosen.
## Output B
(B: 8.17, A: 8.41)

A. COc1cc(Cl)cc(-c2cc(OC)c(-n3c4c(ccc3=O)CN(S(=O)(=O)Nc3ccon3)CC4)cc2F)c1
B. COc1cc(-c2cc(Cl)ccc2C)c(F)cc1-n1c2c(ccc1=O)CN(S(=O)(=O)Nc1ccon1)CC2 (single isomer, unassigned) [Example 9-P]
## Input Response body: label of entry with the larger pIC50; valid values A , B . State the label of the item chosen.
## Output A
(A: 8.89, B: 8.68)

I. COc1cc(-c2ccc(F)c(F)c2)c(F)cc1-n1c2c(ccc1=O)CN(S(=O)(=O)Nc1cccnn1)CC2 (racemic) [Example 32-(Rac)]
II. COc1cc(-c2cc(OC)c(-n3c4c(ccc3=O)CN(S(=O)(=O)Nc3ccon3)CC4)cc2F)ccc1C (racemic) [Example 58-(Rac)]
## Input Response body: label of entry with the larger pIC50; valid values I , II . State the label of the item chosen.
## Output II
